System: A549
Experiment: NCI tumour cell line growth inhibition, 48 h
Active and inactive are the calls of the source. Rule as the data show it: active = GI50 up to about 1.1 µM and inactive = higher.
Possible outcomes: active, inactive

{"molecule": "Cc1cc2c(c3nocc13)C(=O)c1ccccc1C2=O", "class-assignment": "inactive"}
{"molecule": "C/C(CC(=O)Nc1ccc(Cl)c(Cl)c1)=N/NC(=O)C[N+](C)(C)C", "class-assignment": "inactive"}
{"molecule": "Cc1cccc(CC(Cc2ccc(C)cc2C(=O)O)C(=O)O)c1 (stereo not given)", "class-assignment": "inactive"}
{"molecule": "COC(=O)c1ccc(-c2nc(C#N)c(N)o2)cc1", "class-assignment": "inactive"}
{"molecule": "C[C@]12Cc3cnn(-c4ccc(F)cc4)c3NC1CC[C@@H]1C2CC[C@@]2(C)C1CC[C@@H]2O (stereo not given in full)", "class-assignment": "inactive"}
{"molecule": "CC[C@@H]1/C=C/C=C/C[C@H](C)[C@@H](O)[C@](C)(O)C(=O)[C@H](C)[C@@H](O)[C@H](C)C(=O)[C@H](C)[C@@H](O)[C@H](C)/C=C/C(=O)O[C@H]2[C@@H](C)[C@@H](CC1)O[C@@]1(CC[C@@H](C)[C@@H](CC(C)O)O1)[C@@H]2C (stereo not given in full)", "class-assignment": "active"}
{"molecule": "CCOC(=O)Nc1ccc2c(c1)c(CCCCCCc1nc3ccccc3c3ccc(NC(=O)OCC)cc13)nc1ccccc12", "class-assignment": "inactive"}
{"molecule": "COc1ccc([N+](=O)[O-])c2c(NCCCN(C)C)ccnc12", "class-assignment": "inactive"}
{"molecule": "COc1ccccc1[C@@H]1CCC2CC[C@@H](c3ccccc3OC)[N+]21Cc1ccccc1 (stereo not given in full)", "class-assignment": "inactive"}
{"molecule": "COc1cc(C2c3cc4c(cc3[C@@H](OCCN)[C@H]3COC(=O)C23)OCO4)cc(OC)c1O (stereo not given in full)", "class-assignment": "active"}
